Value source: ChEMBL document CHEMBL1201862

system: LXFL 529; experiment: NCI tumour cell line growth inhibition, 48 h
Activity calls are given as the source filed them. No stated cut-off is given here; in the data, active = GI50 up to about 1.1 µM and inactive = higher.
Give one outcome, nothing more. List: Y = active, N = inactive

| Molecule | Experimental Target | Label |
| --- | --- | --- |
| COc1cccc(/C=N\NC(=O)C(C)SC(C)C(=O)N/N=C/c2cccc(OC)c2)c1 (stereo not given) | LXFL 529 | N |
| O=C1OC(c2ccccc2)(c2ccccc2)CC1CN1CCOCC1 (stereo not given) | LXFL 529 | N |
| O=C(NC1CCCCC1)c1c(O)[nH]c(=S)[nH]c1=O | LXFL 529 | N |

Request: Call for entry CC(C)(C)OC(=O)NC1CCC[C@H]1O (stereo not given in full) :
Result: N

Request: Call for entry C=CCC1C(=O)C(C(=O)OC)N2CCc3c([nH]c4ccccc34)C12 (stereo not given) :
Result: N
